tested on: Malme-3M; test: NCI tumour cell line growth inhibition, 48 h
Activity calls are given as the source filed them. Cut-off read from the data, not from the text of the source: active = GI50 up to about 1.1 µM and inactive = higher. *1 amine or outer side, *2 acyl side, *3 side chain or, on linkers, in order; H or OH if unused. Where a SMILES comes first, the peptide text is derived from it. [ ]: non-standard residue; d: D form. The star is where a group is joined. X31 = CC(=O)N(C)SCC(N[*:1])C(=O)[*:2]; Fmoc = O=C(OCC1c2ccccc2-c2ccccc21)*; For = O=C*
# output must be one of active, inactive

Example entries begin here.
CC(=O)N(C)SCC(NC(=O)C(Cc1ccccc1)NC(=O)OCC1c2ccccc2-c2ccccc21)C(=O)NC(Cc1ccccc1)C(=O)NC(Cc1cn(C=O)c2ccccc12)C(=O)NC(CCCCNC(=O)OCC1c2ccccc2-c2ccccc21)C(=O)NC(C(=O)NC(CSN(C)C(C)=O)C(=O)NC(C(N)=O)C(C)O)C(C)O (centres undefined) (Fmoc-F[X31]FW(For)K(Fmoc)T[X31]T-NH2; configuration not given here)
inactive
N=c1n(C(=O)N2CCCC2)c2cc(Cl)ccc2n1C1=NCCN1
inactive
O=C(Cc1ccccc1)N/N=C(/c1nc2ccc([N+](=O)[O-])cc2nc1O)C(O)c1ccccc1Cl (centres undefined)
inactive
C=CCNc1nc(C#N)c(N)s1
inactive
C1CN(C23OC4(N5CCOCC5)C5C6CC(C7C6C4C72)C53)CCO1 (centres undefined)
inactive
COc1cc(C(=O)Nc2nnc(S(N)(=O)=O)s2)cc(OC)c1OC
inactive
CCCCNc1nc(N)nc(Nc2ccc(Br)cc2)c1N=O
inactive
CC[C@@]1(O)C(=O)OCc2c1cc1n(c2=O)Cc2c-1nc1ccccc1c2/C=N\NC(=O)C(C)N (some centres undefined)
inactive

Input line: // return assay outcome for COc1cc(C(C)c2cc3c(cc2OCCOCCOc2cc4c(cc2C(C)c2cc(OC)c(OC)c(OC)c2)OCO4)OCO3)cc(OC)c1OC (centres undefined)
Output line: inactive

Input line: Then CC1=NN(C(=O)Cc2ccccc2)C(=O)/C1=C\c1ccc([N+](=O)[O-])cc1 ?
Output line: inactive

---

test system: Malme-3M; test: NCI tumour cell line growth inhibition, 48 h
Calls of active or inactive are those of the source. No stated cut-off is given here; in the data, active = GI50 up to about 1.1 µM and inactive = higher.
// one of yes (1) = active, no (0) = inactive, no free text

Previously resolved entries follow.
CCOC(=O)C[C@@]12CCCNC1(C)CCc1ccccc12 (some centres not stated)
no (0)
O=C(C(Cl)Cl)N(O)c1ccccc1OCc1ccccc1
no (0)
COc1cc2cnc3c4cc(OC(C)C)c(OC)cc4ccc3c2cc1OC
no (0)
NS(=O)(=O)c1ccc(NC2=CC(=O)C(=O)c3ccccc32)cc1
no (0)
CC(C)=NOC(=O)OC[C@H]1O[C@@H](n2cnc3c(N)ncnc32)C(O)C1O (some centres not stated)
no (0)

Input line: Write down the call the test reported for this compound. Item: CC(C)C(=O)Cc1ccc2ccccc2n1
Output line: no (0)

Input line: Please do the same for O=C(O)CNC(=O)C1NC(C(F)(F)F)(C(F)(F)F)OC1(C(F)(F)F)C(F)(F)F (configuration not stated) as well.
Output line: no (0)

Input line: Next record, please: COc1cccc(C2c3cc4c(cc3OC(N3CCOCC3)C2C)OCO4)c1 (configuration not stated)
Output line: no (0)

Input line: Again, but for CC(C)(Oc1ccc(Cl)cc1)C(=O)N(C(=O)N1CCC(c2ccccc2)CC1)c1ccccc1
Output line: no (0)

Input line: Another compound to check: CCC(C#N)NCc1ccc(CNC(C#N)CC)cc1 (configuration not stated)
Output line: no (0)

Input line: Same for CCN(CC)CC(=O)O[C@]1(CC)C(=O)OCc2c1cc1n(c2=O)Cc2cc3ccccc3nc2-1
Output line: yes (1)

Input line: Could you do the same for COc1ccccc1NC1=NCC(C)S1 (configuration not stated) , please?
Output line: no (0)
